Cited source: ChEMBL document CHEMBL1132448

ASSAY_METHOD_TEXT: Ratio of binding affinity of PNMT to alpha-2 receptors.
# Selectivity listing for each entry below
MEASURED_PROPERTY: Selectivity

molecule=OC[C@H]1Cc2ccc(Br)cc2CN1 assay_value=3.2
molecule="NS(=O)(=O)c1ccc2c(c1)CNC(CF)C2 (centres undefined)" assay_value=1000
molecule=FC[C@H]1Cc2ccccc2CN1 assay_value=4.2
molecule=O=S(=O)(Nc1ccc(Cl)cc1)c1ccc2c(c1)CN[C@H](CF)C2 assay_value=53

###

ASSAY_METHOD_TEXT: Ratio of binding affinity of PNMT to alpha-2 receptors.
# Selectivity listing for each entry below
MEASURED_PROPERTY: Selectivity

compound=C[C@H]1Cc2ccccc2CN1 assay_value=0.15
compound="NS(=O)(=O)c1ccc2c(c1)CNC(CO)C2 (stereo unspecified)" assay_value=4100
compound="FCC1Cc2ccccc2CN1 (stereo unspecified)" assay_value=2.5
compound=O=[N+]([O-])c1ccc2c(c1)CN[C@@H](CCl)C2 assay_value=210
compound=C[C@@H]1Cc2ccc([N+](=O)[O-])cc2CN1 assay_value=76
compound=O=S(=O)(Nc1ccc(Cl)cc1)c1ccc2c(c1)CN[C@@H](CF)C2 assay_value=350
compound="O=[N+]([O-])c1ccc2c(c1)CNC(CF)C2 (stereo unspecified)" assay_value=140
compound=C[C@H]1Cc2ccc([N+](=O)[O-])cc2CN1 assay_value=41
compound=OC[C@@H]1Cc2ccccc2CN1 assay_value=1.1
compound="CCC1Cc2ccccc2CN1 (stereo unspecified)" assay_value=0.028
compound=c1ccc2c(c1)CCNC2 assay_value=0.35
compound="N#Cc1ccc2c(c1)CNC(CF)C2 (stereo unspecified)" assay_value=420
compound=OC[C@H]1Cc2ccccc2CN1 assay_value=7.9
compound=OC[C@@H]1Cc2ccc(Br)cc2CN1 assay_value=2
compound=O=[N+]([O-])c1ccc2c(c1)CN[C@H](CCl)C2 assay_value=410
compound=O=[N+]([O-])c1ccc2c(c1)CN[C@@H](CF)C2 assay_value=90
